B1: MYBL2 (parent)
chain: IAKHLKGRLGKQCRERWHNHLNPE

Variants of: B1
procedure_details: protein stability index of a GFP-peptide fusion (GPS, HEK-293T) (PSI 1-6); higher = more stable;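 note: lentivirally expressed fusions sorted by FACS into six bins by GFP to DsRed ratio, PSI derived from sequencing read proportions per bin multiplied by bin number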
experimental_context: c terminus: a fixed tail appended
protein stability index values by entry
Simply state the number, no unit and no words.

The examples below pair each entry with its known result.
State the recorded protein stability index for this entry: IAKHLKGRLGKQCRERWHNHCNPE [L21C]
1.69

State the recorded protein stability index for this entry: IAKDLKGRLGKQCRERWHNHLNPE [H4D]
2.74

State the recorded protein stability index for this entry: IAKHLRGRLGKQCRERWHNHLNPE [K6R]
1.67

State the recorded protein stability index for this entry: IAKHLKGRLGKQCRERWANHLNPE [H18A]
1.61

State the recorded protein stability index for this entry: IAKHLKGRLGKSCRERWHNHLNPE [Q12S]
2.77

State the recorded protein stability index for this entry: IAKHLKGRLGKQCRERYHNHLNPE [W17Y]
2.38

State the recorded protein stability index for this entry: IAKHLKGRLGKQCRIRWHNHLNPE [E15I]
1.96

State the recorded protein stability index for this entry: IAKHLKGRLGKQCRERWHFHLNPE [N19F]
2.58

State the recorded protein stability index for this entry: IAKHLKGNLGKQCRERWHNHLNPE [R8N]
1.61

State the recorded protein stability index for this entry: IAKHLKGRLGKQCRERWHNHLNNE [P23N]
1.93

New cases:
State the recorded protein stability index for this entry: IAKHLKGRLGKWCRERWHNHLNPE [Q12W]
1.93

State the recorded protein stability index for this entry: HAKHLKGRLGKQCRERWHNHLNPE [I1H]
2.19

State the recorded protein stability index for this entry: IAKHLKGRLGKQCRERWHNPLNPE [H20P]
2.41
